Recorded normalised cell number for the following compounds
Assay: differential killing of epithelial or mesenchymal cells, primary screen, imaging, PC-3E GFP, TEM4-18 mCherry, co-culture (AID 1345086);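 further: cells exposed to compound for 72 h before imaging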
Settings: imaging cell counts, measured here: epithelial PC-3E GFP cell survival, at 1 µM
Observed property: normalised cell number

1. Cn1nnnc1SCC1=C(C(=O)O)N2C(=O)C(NC(=O)C(O)c3ccccc3)C2SC1 (configuration not stated); 1.03
2. COc1ccc(-c2coc3cc(O)ccc3c2=O)c(OC)c1; 1.07
3. Nc1nc(F)nc2c1ncn2[C@@H]1O[C@H](COP(=O)(O)O)[C@@H](O)[C@@H]1O; 0.86
4. Nc1nc(N)c2nc(CNc3ccc(C(=O)NC(CCC(=O)O)C(=O)O)cc3)cnc2n1 (configuration not stated); 1.01
5. CC1OC(O[C@H]2/C=C/C=C/C=C/C=C/C=C/C=C/C=C/[C@H](C)[C@@H](O)[C@@H](C)[C@H](C)OC(=O)CC(O)CC(O)CCC(O)C(O)CC(O)C[C@]3(O)C[C@H](O)C(C(=O)O)C(C2)O3)C(O)[C@@H](N)C1O (some centres not stated); 1.18
6. O=C(O)C1O[C@@H](O)[C@@H](O)[C@@H](O)C1O (some centres not stated); 1.22
7. O=C(O)C1=C(CSc2nnnn2CS(=O)(=O)O)CS[C@@H]2C(NC(=O)[C@H](O)c3ccccc3)C(=O)N12 (some centres not stated); 1.08
8. COC(=O)C1[C@H]2C[C@H]3c4[nH]c5ccccc5c4CCN3C[C@@H]2CC[C@@H]1O (some centres not stated); 1.03
9. CO[C@H]1/C=C/O[C@@]2(C)Oc3c(C)c(O)c4c(O)c(c(C=NN5CCN(C)CC5)c(O)c4c3C2=O)NC(=O)/C(C)=C\C=C\C(C)[C@H](O)[C@@H](C)[C@@H](O)[C@@H](C)[C@@H](OC(C)=O)[C@@H]1C (some centres not stated); 0.87
10. CC1(C)O[C@@H]2CC3C4C[C@H](F)C5=CC(=O)CC[C@]5(C)C4[C@@H](O)C[C@]3(C)[C@]2(C(=O)CO)O1 (some centres not stated); 1.17
11. OCCN1C[C@H](O)[C@@H](O)C(O)C1CO (some centres not stated); 1.01
12. O=C1O[C@@H](CO)[C@H](O)[C@@H](O)[C@@H]1O; 0.98
13. CC(C)(Oc1ccc(C(=O)c2ccc(Cl)cc2)cc1)C(=O)O; 1.09
14. CC(=O)Oc1cccc(C)c1; 0.86
15. O=c1c(O)cccc2cc(O)c(O)c(O)c12; 1.11
16. C[C@@H]1O[C@@H](O[C@H]2[C@@H](Oc3cc(O)c4c(c3)O[C@H](c3ccc(O)cc3)CC4=O)O[C@H](CO)[C@@H](O)[C@@H]2O)[C@H](O)[C@H](O)[C@H]1O; 0.94
17. C[N+](C)(C)CCOP(=O)([O-])OP(=O)(O)OC[C@H]1OC(n2ccc(N)nc2=O)[C@H](O)[C@@H]1O (some centres not stated); 0.95
